System: SK-MEL-2 melanoma
Experiment: NCI-60 one-dose screen, 48 h (100 = growth as untreated, 0 = no growth, -100 = all killed)
Conditions: 10 µM unless noted
Compounds without any hit were thinned out: in the full panel of roughly 83,000, 20% have a hit. Calls of active or inactive are those of the source. Rule for the calls: active = growth percent below 10; inactive = the rest.
Reported growth values for the following compounds.
measured parameter: growth

compound: CCN(CC)c1ccc(CNc2ccnc3ccccc23)cc1
measured target: SK-MEL-2 melanoma
reported value: 79.3% (inactive)

compound: CC(NNC(C)c1ccccc1)c1ccccc1 (configuration not stated)
measured target: SK-MEL-2 melanoma
reported value: 110% (inactive)

compound: COC(=O)c1cc2cc(-c3ccc(OC)cc3)cnc2[nH]1
measured target: SK-MEL-2 melanoma
reported value: 8.37% (active)

compound: Cc1ccc(Nc2nnc(-c3ccc(Cl)cc3)o2)c(C)c1
measured target: SK-MEL-2 melanoma
reported value: 67.9% (inactive)

compound: Cc1ccc2nc(-c3cc4c([nH]c5ccccc54)c(-c4ccc(F)c(F)c4)n3)[nH]c2c1
measured target: SK-MEL-2 melanoma
reported value: 94% (inactive)

compound: S=C(S)NCCc1c[nH]c2ccccc12
measured target: SK-MEL-2 melanoma
reported value: 99.6% (inactive)

compound: O=c1cc/c(=N\Nc2ccccc2)c(=O)/c1=N/Nc1ccccc1
measured target: SK-MEL-2 melanoma
reported value: 126% (inactive)

compound: C=CCSc1n[nH]c(-c2cccs2)n1
measured target: SK-MEL-2 melanoma
reported value: 3.39% (active)

compound: O=C1c2c(c3c4ccccc4n(CCCCCCBr)c3c3[nH]c4ccccc4c23)C(=O)N1O
measured target: SK-MEL-2 melanoma
reported value: -19.4% (active)

compound: CC(C)(C)n1cc(-c2ccnc(NCCNS(=O)(=O)c3ccc(Cl)cc3)c2)c(-c2cccc(O)c2)n1
measured target: SK-MEL-2 melanoma
reported value: 74.3% (inactive)

compound: Cc1ccc(S(=O)(=O)NCCNc2nccc(-c3c(-c4cccc(N)c4)nc4sccn34)n2)cc1
measured target: SK-MEL-2 melanoma
reported value: 109% (inactive)

compound: Cn1cnc2c(N3CCN(C(=O)OCc4ccc5c(Cl)cc(Cl)c(O)c5n4)CC3)nc(Cl)nc21
measured target: SK-MEL-2 melanoma
reported value: 81% (inactive)

compound: CC(C)(C)n1cc(-c2ccnc(NCCNS(=O)(=O)c3ccc(F)cc3)c2)c(-c2cccc(O)c2)n1
measured target: SK-MEL-2 melanoma
reported value: 66.5% (inactive)

compound: COc1cc(/C=C/C(=O)c2c(C)nc3ccccc3c2C)ccc1OCCCCOc1cc2c(cc1OC)C(=O)N1CCC[C@H]1C=N2
measured target: SK-MEL-2 melanoma
reported value: -100% (active)

compound: C=C1CC2(OC1=O)C(=O)N(CCCN1C(=O)C3(CC(=C)C(=O)O3)c3ccccc31)c1ccccc12 (configuration not stated)
measured target: SK-MEL-2 melanoma
reported value: 52.8% (inactive)

compound: Cc1c(C(=O)/C=C/c2csc3ccccc23)[n+](=O)c2ccccc2n1[O-]
measured target: SK-MEL-2 melanoma
reported value: 95.3% (inactive)

compound: CC12CCCC(CC(=O)c3[nH]c4ccccc4c31)C2 (configuration not stated)
measured target: SK-MEL-2 melanoma
reported value: 30% (inactive)

compound: C=C[C@@H]1C[C@H](O)Cc2c(C)cc(C)cc2N1
measured target: SK-MEL-2 melanoma
reported value: 111% (inactive)

compound: N#C/C(=C1C=C/C(=N/O)C(Cl)=C/1)c1ccc(Cl)cc1
measured target: SK-MEL-2 melanoma
reported value: 95.1% (inactive)

compound: O=C(c1ccccc1)c1c(/C=C/c2ccccc2)c2ccccc2[nH]c1=O
measured target: SK-MEL-2 melanoma
reported value: 92.6% (inactive)

compound: COc1ccc(/C=C2\CN(Cc3cn(CCNc4ccnc5cc(Cl)ccc45)nn3)C/C(=C\c3ccc(OC)c(OC)c3)C2=O)cc1OC
measured target: SK-MEL-2 melanoma
reported value: -19.7% (active)

compound: O=S(=O)(NCCNc1nccc(-c2c(-c3ccc(O)cc3)nc3sccn23)n1)c1cccc2ccccc12
measured target: SK-MEL-2 melanoma
reported value: 124% (inactive)

compound: COc1ccc(C2C=C(c3ccc(OC)c(OC)c3)N=C3SC=C(C)N32)c(Br)c1 (configuration not stated)
measured target: SK-MEL-2 melanoma
reported value: 101% (inactive)

compound: Cc1cc(C2(c3cc(C)c(O)cc3C)OS(=O)(=O)c3ccccc32)c(C)cc1O
measured target: SK-MEL-2 melanoma
reported value: 111% (inactive)

compound: CC(=O)OC[C@]12CC[C@H]3[C@@H](C[C@H]4O[C@]45CC=CC(=O)[C@]35C)[C@]1(O)CC[C@@]2(O)[C@@](C)(O)C1CC(C)=C(C)C(=O)O1 (some centres not stated)
measured target: SK-MEL-2 melanoma
reported value: -22.6% (active)

compound: Cc1ccc(-c2cc3nc(-c4ccccc4)nc(C(Cl)Cl)n3n2)cc1
measured target: SK-MEL-2 melanoma
reported value: 26.7% (inactive)

compound: Cn1c2ccc(Br)cc2c2c3c(c4c5ccccc5[nH]c4c21)C(=O)N(O)C3=O
measured target: SK-MEL-2 melanoma
reported value: -74.4% (active)

compound: O=C(/C=C\c1cccc([N+](=O)[O-])c1)/C=C/c1cccc([N+](=O)[O-])c1
measured target: SK-MEL-2 melanoma
reported value: -38.1% (active)

compound: COc1ccc(C2C=C(c3ccc(N)cc3)N=C3SC=CN32)cc1OC (configuration not stated)
measured target: SK-MEL-2 melanoma
reported value: 108% (inactive)

compound: O=S(=O)(NCCCNc1nccc(-n2ccc3cccnc32)n1)c1ccc(Br)cc1
measured target: SK-MEL-2 melanoma
reported value: 108% (inactive)

compound: Cc1ccc(S(=O)(=O)NCCCNc2cc(-c3cn(C(C)(C)C)nc3-c3cccc(O)c3)ccn2)cc1
measured target: SK-MEL-2 melanoma
reported value: 70.4% (inactive)

compound: CCO/C=N/C1=C(C#N)C(c2ccc(Cl)cc2)c2c(c3ccc(C)cc3[nH]c2=O)O1 (configuration not stated)
measured target: SK-MEL-2 melanoma
reported value: 101% (inactive)

compound: O=c1[nH]c(NCc2ccccc2)nc2nc(Nc3ccc(NC(=S)Nc4ccccc4)cc3)nc(-c3ccc(O)cc3O)c12
measured target: SK-MEL-2 melanoma
reported value: 97.5% (inactive)

compound: Cc1cc(C(C)(C)C)ccc1S
measured target: SK-MEL-2 melanoma
reported value: 93.4% (inactive)

compound: CCOC(=O)CC(=O)OC
measured target: SK-MEL-2 melanoma
reported value: 107% (inactive)

compound: COc1cc(C2C3=C(COC3=O)Nc3cc4c(cc32)CCC4)cc2c1OCO2 (configuration not stated)
measured target: SK-MEL-2 melanoma
reported value: 54.4% (inactive)

compound: CCN(CC)c1ccc(C(=N)c2ccc(N(CC)CC)cc2)cc1
measured target: SK-MEL-2 melanoma
reported value: -66.6% (active)
